assay system: PRMT5/MEP50 (Homo sapiens)
Construct: Expressed full-length human Flag-PRMT5/6His-MeP50 protein complex was purified; made in house; host or cells: Spodoptera frugiperda (SF9) insect cells, baculovirus (pDEST8)
Sequence (O14744 with tags, fused parts or gaps): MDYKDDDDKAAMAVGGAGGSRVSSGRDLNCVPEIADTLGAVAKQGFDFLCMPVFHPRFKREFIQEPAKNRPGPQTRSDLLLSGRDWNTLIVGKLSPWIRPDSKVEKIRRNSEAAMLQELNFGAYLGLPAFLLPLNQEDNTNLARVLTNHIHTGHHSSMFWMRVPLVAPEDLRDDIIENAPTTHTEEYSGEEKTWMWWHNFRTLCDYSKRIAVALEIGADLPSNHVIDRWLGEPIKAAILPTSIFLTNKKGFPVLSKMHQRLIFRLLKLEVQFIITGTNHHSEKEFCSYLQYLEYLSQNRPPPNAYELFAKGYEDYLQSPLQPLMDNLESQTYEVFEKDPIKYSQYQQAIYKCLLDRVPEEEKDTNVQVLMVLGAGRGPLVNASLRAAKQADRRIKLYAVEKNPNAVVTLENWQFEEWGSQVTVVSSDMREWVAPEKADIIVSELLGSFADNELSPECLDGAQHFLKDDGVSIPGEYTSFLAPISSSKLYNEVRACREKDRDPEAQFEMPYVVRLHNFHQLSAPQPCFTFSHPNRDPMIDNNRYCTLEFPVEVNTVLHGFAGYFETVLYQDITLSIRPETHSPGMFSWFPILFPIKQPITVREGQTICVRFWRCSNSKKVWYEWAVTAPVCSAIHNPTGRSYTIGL
Sequence (Q9BQA1 with tags, fused parts or gaps partner limits assumed): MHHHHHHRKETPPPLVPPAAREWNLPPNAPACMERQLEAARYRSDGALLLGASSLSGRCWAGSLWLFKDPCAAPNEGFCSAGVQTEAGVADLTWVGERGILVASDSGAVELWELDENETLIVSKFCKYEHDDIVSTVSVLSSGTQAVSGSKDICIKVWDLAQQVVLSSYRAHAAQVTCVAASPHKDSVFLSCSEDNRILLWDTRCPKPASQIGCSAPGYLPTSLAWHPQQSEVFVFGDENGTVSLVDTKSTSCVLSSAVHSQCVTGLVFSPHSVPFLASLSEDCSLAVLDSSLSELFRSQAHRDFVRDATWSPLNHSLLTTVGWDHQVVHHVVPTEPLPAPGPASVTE
test: PRMT5 Biochemical Assay (PRMT5/MEP50 enzyme assay on peptide substrate, 3H-SAM Flashplate)
assay conditions: Table D-2; read-out: Biochemical IC50
For each entry below, report its IC50 value.

Recorded IC50, per entry:
- compound: "COc1cccc2c1CCN(CC(O)COc1cccc(-c3ccc4ncn(C)c4c3)c1)C2 (stereo not drawn)"
  assay system: "PRMT5/MEP50 (Homo sapiens)"
  result: "1 to 10 µM"
- compound: "CN(C)S(=O)(=O)c1cccc(-c2cccc(OCC(O)CN3CCc4ccccc4C3)c2)c1 (stereo not drawn)"
  assay system: "PRMT5/MEP50 (Homo sapiens)"
  result: "> 40 µM"

Then this compound:
The reported PRMT5/MEP50 (Homo sapiens) IC50 of CC(C(O)COc1cccc(CNC2CCCC2)c1)N1CCc2ccccc2C1 (stereo not drawn) is 1 to 10 µM
